experimental-system: T1, corticotropin releasing factor 2 receptor
T1 sequence (Q13324 whole entry, species assumed, looked up): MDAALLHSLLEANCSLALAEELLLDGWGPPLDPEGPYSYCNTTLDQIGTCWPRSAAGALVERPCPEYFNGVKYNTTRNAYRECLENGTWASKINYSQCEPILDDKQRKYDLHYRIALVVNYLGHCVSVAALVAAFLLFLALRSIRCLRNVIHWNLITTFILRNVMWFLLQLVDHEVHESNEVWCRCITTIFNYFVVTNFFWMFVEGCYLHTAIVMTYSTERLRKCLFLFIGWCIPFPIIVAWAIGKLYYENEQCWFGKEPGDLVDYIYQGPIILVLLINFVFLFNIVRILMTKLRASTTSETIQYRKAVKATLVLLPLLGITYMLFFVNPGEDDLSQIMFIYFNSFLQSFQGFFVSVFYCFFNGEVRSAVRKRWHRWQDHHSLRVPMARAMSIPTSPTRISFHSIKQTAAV
method-description: cell-based or functional assay
Ends that are not written are not given here.
readout-label: CRF2R EC50 (nM)
Expressed in nM, but write only the number.

Example results:
ZGPPISIDLSIGLLRKMIEIEKQEKEKQQAANNRLLLDTI (C-terminal amide) [SEQ ID NO 25]	81
DNPSLSIDLPLILLRTLLELARTQSQRERAEQNAIIFASV-NH2 [SEQ ID NO 175]	5.42
ZGPPISIDLPQHLLRKMIEIEKQEKEKQQAANNRLLLDTI (C-terminal amide) [SEQ ID NO 207]	61.4

Then there is this binder:
What value of CRF2R EC50 has been reported for the following binder? IVLSLEVPIGLLQILLEQARARAAREQATTNARILARV-NH2 [SEQ ID NO 120]
69.9
